target: recombinant full-length PfCSP (Plasmodium falciparum circumsporozoite protein, strain NF54) (Plasmodium falciparum NF54, UniProt P19597)
Sequence (P19597 20-375): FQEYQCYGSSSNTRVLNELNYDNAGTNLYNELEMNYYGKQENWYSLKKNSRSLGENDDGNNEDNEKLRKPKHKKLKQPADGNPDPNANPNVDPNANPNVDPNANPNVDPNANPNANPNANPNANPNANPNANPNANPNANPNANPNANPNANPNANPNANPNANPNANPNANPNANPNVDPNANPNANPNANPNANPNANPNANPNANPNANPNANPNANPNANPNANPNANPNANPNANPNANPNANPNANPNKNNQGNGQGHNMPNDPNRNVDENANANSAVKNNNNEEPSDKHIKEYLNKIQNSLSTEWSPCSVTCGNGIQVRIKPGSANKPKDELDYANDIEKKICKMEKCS
MEASURED ENDPOINT: binding result

{"BINDER": "CL-512469 (antibody, V domains shown) VH: QMQLVESGGGVVQPGRSLTLSCEASGFTFSNYGMHWVRQAPGKGLEWVAIIWFDGSHRFYADAVEGRFTISRDNSKNTLFLQMTSLRAEDAAVYYCARVGQFSSSSWGAFDIWGQGTVVTVSS VL: EIVLTQSPGTLSLSPGESVTLSCRASQIISNTHLAWYQQKPGQAPSLLIYGASSRATGIPDRFSGSGSGTDFTLTISRLEPEDFAVYYCQQYGRLWTFGQGTKVEIK", "MEASURED ENDPOINT": "binding result", "RESULT": "binds"}
{"BINDER": "CL-532061 (antibody, V domains shown) VH: QVQLVESGGGVVQPGRSLRLSCVASRFTFSNYGMHWVRQTPGKGLEWVAIIWYDGSNKFYGDSVKGRFTISRDNSRNTLYLQMNNLRAEDTAVYYCARAYDDFVDHDKYGMDVWGQGTTVTVSS VL: DIQMTQSPSTLSASVGDRVTISCRASQSISIWLAWYQQKSGKAPKLLIYKASRLESGVPSRFSGSGSGTEFTLTISSLQPDDFATYYCQQYNSYWTFGQGTKVEIK", "MEASURED ENDPOINT": "binding result", "RESULT": "binds"}
{"BINDER": "CL-511073 (antibody, V domains shown) VH: QVQLVESGGGVVQPGRSLRLSCAASGFSFSSHGMHWVRQAPGKGLEWVSIIWYDGSNKFYADSVKGRFTISRDNSKNTLYLQMNSLRAEDTAVYYCARDGYDVLTGHYNWFDPWGQGTLVTVSS VL: EIVMTQSPATLSVSPGERATLSCRASQSVSSKLAWYQQKPGQAPRLLIYGASTRATGIPARFSGSGSGTDFTLTISSLQSEDFAVYYCQQYNNWWTFGHGTKVEIK", "MEASURED ENDPOINT": "binding result", "RESULT": "binds"}
